melting point under 200 °C gets 1, anything at or over 200 °C gets 0.

MOLECULE	LABEL
CS(=O)(=O)N(c1cccc(C(=O)NC2CCS(=O)(=O)CC2)c1)C1CN(C(c2ccc(Cl)cc2)c2ccc(Cl)cc2)C1 [compound 11]	0
CCN1CCCC1CNC(=O)c1cccc(N(C2CN(C(c3ccc(Cl)cc3)c3ccc(Cl)cc3)C2)S(C)(=O)=O)c1 (single isomer, unassigned; (+)) [Compound No. 6]	1
CS(=O)(=O)N(c1cccc(C(=O)NC2CCSCC2)c1)C1CN(C(c2ccc(Cl)cc2)c2ccc(Cl)cc2)C1 [compound 10]	0
CS(=O)(=O)N(c1cccc(C(=O)NCCN2CCNC2=O)c1)C1CN(C(c2ccc(Cl)cc2)c2ccc(Cl)cc2)C1 [compound 9]	1
CCN1CCCC1CNC(=O)c1cccc(N(C2CN(C(c3ccc(Cl)cc3)c3ccc(Cl)cc3)C2)S(C)(=O)=O)c1 (single isomer, unassigned; (-)) [Compound No. 5]	1

----------
The reader will find reported IC50 values listed item by item below.
ASSAY SYSTEM: human CB1 receptor (Homo sapiens)
Construct: U373MG cells naturally expressing the human CB1 receptor; endogenous in cells
Sequence (P21554 whole entry): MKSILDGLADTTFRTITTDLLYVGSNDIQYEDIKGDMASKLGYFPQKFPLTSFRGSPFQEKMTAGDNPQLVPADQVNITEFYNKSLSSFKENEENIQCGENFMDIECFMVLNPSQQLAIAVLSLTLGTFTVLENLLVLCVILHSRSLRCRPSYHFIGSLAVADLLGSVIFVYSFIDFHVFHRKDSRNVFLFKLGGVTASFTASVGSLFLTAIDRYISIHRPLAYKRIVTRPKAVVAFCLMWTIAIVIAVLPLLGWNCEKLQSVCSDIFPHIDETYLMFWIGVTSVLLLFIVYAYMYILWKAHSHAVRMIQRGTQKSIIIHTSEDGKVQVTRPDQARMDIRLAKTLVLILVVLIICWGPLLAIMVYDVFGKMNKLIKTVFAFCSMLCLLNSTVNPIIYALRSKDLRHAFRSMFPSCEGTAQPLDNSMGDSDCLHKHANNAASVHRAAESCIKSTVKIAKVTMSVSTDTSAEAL
ASSAY NOTES: intracellular cyclic AMP functional test in U373MG cells (HTRF cAMP Dynamic Kit)
STATED CONDITIONS: U373MG cells naturally expressing the human CB1 receptor
READOUT LABEL: IC50 (nM)

COMPOUND	READOUT UNIT	TEST VALUE
CS(=O)(=O)N(c1cc(F)cc(C(=O)NC2CCNC2=O)c1)C1CN(C(c2ccc(Cl)cc2)c2ccc(Cl)cc2)C1 (single isomer, unassigned; (-)) [Compound No. 16]	nM	7
CS(=O)(=O)N(c1cccc(C(=O)NCCN2CCNC2=O)c1)C1CN(C(c2ccc(Cl)cc2)c2ccc(Cl)cc2)C1 [compound 9]	nM	130
CS(=O)(=O)N(c1cccc(C(=O)NC2CCS(=O)(=O)C2)c1)C1CN(C(c2ccc(Cl)cc2)c2ccc(Cl)cc2)C1 (stereo not shown) [Compound No. 2]	nM	47
CS(=O)(=O)N(c1cc(F)cc(C(=O)NC2CCNC2=O)c1)C1CN(C(c2ccc(Cl)cc2)c2ccc(Cl)cc2)C1 (stereo not shown) [Compound No. 14]	nM	9
